# target.or.system: Cathepsin B (Homo sapiens)
# protocol.notes: Cathepsin B (CatB) cleavage assay
# Format: biochemical
# measurement.conditions: norfloxacin linker compounds; 1 h
quantity.kind: % Parent remaining after incubation with CatB, T = 1 h (%)
# unit: % | format: bare number

The examples below pair each entry with its known result.
# compound, observed
records = [
    ("CCn1cc(C(=O)O)c(=O)c2cc(F)c(N3CCN(C(=O)OCc4ccc(NC(=O)[C@H](CCNC(=N)N)NC(=O)[C@@H](NC(=O)CCCC(=O)N(C)C)C(C)C)cc4)CC3)cc21 [BCY9423]", 0.6),
    ("CCn1cc(C(=O)O)c(=O)c2cc(F)c(N3CCN(C(=O)OCc4ccc(NC(=O)[C@H](CNC(=N)N)NC(=O)[C@@H](NC(=O)CCCC(=O)N(C)C)C(C)C)cc4)CC3)cc21 [BCY10300]", 72),
    ("CCn1cc(C(=O)O)c(=O)c2cc(F)c(N3CCN(C(=O)OCc4ccc(NC(=O)[C@H](CCNC(=N)N)NC(=O)[C@@H](NC(=O)[C@H](CCC(=O)O)NC(=O)CCCC(=O)N(C)C)C(C)C)cc4)CC3)cc21 [BCY9695]", 0),
]

Now take the following compound into account.
Entry under review: CCn1cc(C(=O)O)c(=O)c2cc(F)c(N3CCN(C(=O)OCc4ccc(NC(=O)[C@H](CN)NC(=O)[C@@H](NC(=O)[C@H](CCC(=O)O)NC(=O)CCCC(=O)N(C)C)C(C)C)cc4)CC3)cc21 [BCY10297] . Reported % Parent remaining after incubation with CatB, T = 1 h?
75
